Measured values drawn from PubChem BioAssay AID248 for this set.

- System: L1210 leukemia ip in BDF1 mice, survival T/C
- method: NCI In Vivo Anticancer Drug Screen. Data for tumor model L1210 Leukemia (intraperitoneal) in B6D2F1 (BDF1) mice
- study conditions: endpoint: mean survival time; dose: 400.0 mg/kg/injection; schedule: Q01DX009 (ip); vehicle: saline with Tween-80; higher = longer survival
Inconclusive results and toxic doses are left out.
This listing pairs compounds with measured T/C.

Log: L1210 leukemia ip in BDF1 mice, survival T/C, compound `CCc1cccc(CC)c1N(C(C)=O)C(C)=O` , T/C = 102 % of control

Record for `CN(C)c1ccc(/C=N/NC(=O)C(O)(c2ccccc2)c2ccccc2)cc1` under target or system L1210 leukemia ip in BDF1 mice, survival T/C: T/C reported as 88 % of control

T/C for L1210 leukemia ip in BDF1 mice, survival T/C with input `O=C(O)CCN(Cc1ccccc1)Cc1ccccc1` equals 98 % of control

The reported L1210 leukemia ip in BDF1 mice, survival T/C T/C of `CCOC(=O)c1ccc(NC(=O)Nc2ccc(SC)cc2)cc1N(CC)CC` is 92 % of control

Tested on L1210 leukemia ip in BDF1 mice, survival T/C: O=C(O)C(Br)C(Br)C(=O)Nc1ccc(Cl)c(Cl)c1 (centres undefined) . Observed T/C: 93 % of control

Bench note, L1210 leukemia ip in BDF1 mice, survival T/C: `O=C(O)c1cc(C(=O)O)c(C(=O)O)cc1C(=O)O` , T/C reads 94 % of control

`COc1ccc(Cl)cc1NC(=O)Oc1ccccc1C(C)C` on L1210 leukemia ip in BDF1 mice, survival T/C gives T/C = 89 % of control

Reading of T/C for `O=C(Nc1cccc2c1N(C(=O)c1ccco1)CCC2)c1ccco1` with L1210 leukemia ip in BDF1 mice, survival T/C: 95 % of control

Value (T/C, L1210 leukemia ip in BDF1 mice, survival T/C) for record `O=c1cc(/C=N/Nc2ccc([N+](=O)[O-])cc2[N+](=O)[O-])c2cccc3c2n1CCC3` = 93 % of control

Known value: L1210 leukemia ip in BDF1 mice, survival T/C T/C of the compound `Oc1ccccc1C=NCCN=Cc1ccccc1O` equals 92 % of control

Entry CC(C(=O)c1ccc(Br)cc1)C(Br)c1ccccc1 (centres undefined) under L1210 leukemia ip in BDF1 mice, survival T/C had T/C of 95 % of control

Item: `O=S(=O)(NCCNS(=O)(=O)c1ccccc1)c1ccccc1` | System: L1210 leukemia ip in BDF1 mice, survival T/C | T/C: 95 % of control

Cc1ccc(N2C(=O)CC(Sc3ccccc3N)C2=O)cc1Cl (centres undefined) on L1210 leukemia ip in BDF1 mice, survival T/C gives T/C = 95 % of control

The compound `ClC(Cl)(Cl)c1cc(C(Cl)(Cl)Cl)nc(NCCCN2CCCC2)n1` on L1210 leukemia ip in BDF1 mice, survival T/C: T/C was 95 % of control

Hey, L1210 leukemia ip in BDF1 mice, survival T/C data for `CCC(=O)O[C@H]1CC[C@H]2[C@@H]3[C@@H](C)CC4=CC(=O)CC[C@]4(C)[C@H]3CC[C@]12C` : T/C came out at 91 % of control

Observed T/C on L1210 leukemia ip in BDF1 mice, survival T/C, entry `C=CCc1cc(C)cc([N+](=O)[O-])c1OBr` , equals 93 % of control

Reported L1210 leukemia ip in BDF1 mice, survival T/C T/C for item COC(=O)c1ccccc1NC(=S)NC(=O)C(C)Oc1ccccc1 (centres undefined) was 92 % of control

Item: `Cc1ccc(NC(=O)COc2ccc(Cl)cc2Cl)cc1Cl` | System: L1210 leukemia ip in BDF1 mice, survival T/C | T/C: 88 % of control

---

- Test system: L1210 leukemia ip in BDF1 mice, survival T/C
- method: NCI In Vivo Anticancer Drug Screen. Data for tumor model L1210 Leukemia (intraperitoneal) in B6D2F1 (BDF1) mice
- study conditions: endpoint: mean survival time; dose: 100.0 mg/kg/injection; schedule: Q01DX009 (ip); vehicle: Klucel (hydroxypropylcellulose) (HPC); higher = longer survival
Toxic doses and inconclusive results are not listed.
measurement type: T/C

{"columns": ["molecule", "test target", "T/C"],
 "data": [
  ["CCCCOC(=O)C1CCCCC1C(=O)OCCCC (configuration not stated)", "L1210 leukemia ip in BDF1 mice, survival T/C", "102 % of control"],
  ["O=P(OCc1ccccc1)(OCc1ccccc1)C(Nc1ccccc1)c1ccccc1 (configuration not stated)", "L1210 leukemia ip in BDF1 mice, survival T/C", "103 % of control"],
  ["O=C(NCCCl)Nc1c2ccccc2nc2ccccc12", "L1210 leukemia ip in BDF1 mice, survival T/C", "97 % of control"],
  ["Cc1cc([N+](=O)[O-])ccc1NC(=O)c1c(Cl)c(Cl)c(C(=O)Nc2ccc([N+](=O)[O-])cc2C)c(Cl)c1Cl", "L1210 leukemia ip in BDF1 mice, survival T/C", "101 % of control"],
  ["Cc1cccc(Cl)c1NC(=S)NCc1ccco1", "L1210 leukemia ip in BDF1 mice, survival T/C", "98 % of control"],
  ["O=C(Nc1ccc(Cl)c(Cl)c1)OCC1CC2C=CC1C2 (configuration not stated)", "L1210 leukemia ip in BDF1 mice, survival T/C", "100 % of control"],
  ["O=C(Nc1ccc(C(c2ccccc2)(c2ccccc2)c2ccccc2)cc1)C(Cl)Cl", "L1210 leukemia ip in BDF1 mice, survival T/C", "91 % of control"],
  ["Cc1ccc(N2C(=O)CC(Sc3ccccc3N)C2=O)cc1Cl (configuration not stated)", "L1210 leukemia ip in BDF1 mice, survival T/C", "88 % of control"],
  ["O=C(NCc1ccccc1Cl)Nc1ccccc1F", "L1210 leukemia ip in BDF1 mice, survival T/C", "106 % of control"],
  ["Cc1ccc([N+](=O)[O-])c(C)c1", "L1210 leukemia ip in BDF1 mice, survival T/C", "92 % of control"]
]}

molecule `CC(C)(C)NC(=O)Oc1cccnc1` , T/C observed: 93 % of control

Kindly note the recorded T/C for `O=C1c2cc(Cl)cc(Cl)c2-c2c1cc(Cl)cc2[N+](=O)[O-]` , which is 97 % of control

---

- System: L1210 leukemia ip in BDF1 mice, survival T/C
- method: NCI In Vivo Anticancer Drug Screen. Data for tumor model L1210 Leukemia (intraperitoneal) in B6D2F1 (BDF1) mice
- study conditions: endpoint: mean survival time; dose: 400.0 mg/kg/injection; schedule: Q04DX003 (ip); vehicle: Klucel (hydroxypropylcellulose) (HPC); higher = longer survival
Inconclusive results and toxic doses are left out.
Each entry below carries its reported T/C.

Below, 5 molecules whose answers are already recorded.
{"columns": ["molecule", "T/C"],
 "data": [
  ["CCCCCCNc1c([N+](=O)[O-])cc(C)cc1[N+](=O)[O-]", "108 % of control"],
  ["O=C(NCNC(=O)c1ccccc1)c1ccccc1", "103 % of control"],
  ["CC(=O)Nc1cccc(Cc2ccccc2)c1", "108 % of control"],
  ["O=[N+]([O-])C(Br)(c1ccccc1)S(=O)(=O)Cc1ccccc1 (stereo unspecified)", "102 % of control"],
  ["CCOC(=O)c1ccc(C(=O)OCC)c(C#N)n1", "95 % of control"]
]}

Consider now this further molecule.
The molecule `COc1ccc(NC(=O)Nc2cc(Cl)ccc2OC)c(OC)c1` , tested on L1210 leukemia ip in BDF1 mice, survival T/C, showed T/C of 101 % of control

---

- Tested on: L1210 leukemia ip in BDF1 mice, survival T/C
- method: NCI In Vivo Anticancer Drug Screen. Data for tumor model L1210 Leukemia (intraperitoneal) in B6D2F1 (BDF1) mice
- study conditions: endpoint: mean survival time; dose: 100.0 mg/kg/injection; schedule: Q04DX002 (ip); vehicle: saline with Tween-80; higher = longer survival
Inconclusive results and toxic doses are left out.
measurement type: T/C

For orientation, consider the following solved cases.
{"columns": ["compound", "measurement type", "test result"],
 "data": [
  ["O=C1NC(=O)N(c2ccc(Cl)cc2)C1=O", "T/C", "111 % of control"],
  ["O=[N+]([O-])c1ccc(S(=O)(=O)OCc2ccccc2COS(=O)(=O)c2ccc([N+](=O)[O-])cc2)cc1", "T/C", "101 % of control"],
  ["CCC[CH2][Sn]1([CH2]CCC)[O]C(=O)C[S]1", "T/C", "106 % of control"],
  ["CC(C)=CCCC(C)CCOC(N)=O (centres undefined)", "T/C", "104 % of control"],
  ["CC(C)(C)NC(=O)C(Br)c1ccccc1 (centres undefined)", "T/C", "94 % of control"],
  ["CCOc1ccc(N=Cc2ccc(OC(=O)c3ccccc3)c(OC)c2)cc1", "T/C", "102 % of control"],
  ["CC(C)=CCOc1ccc2c(c1)OCO2", "T/C", "91 % of control"],
  ["CCCSP(=[Se])(CCC)c1ccccc1 (centres undefined)", "T/C", "101 % of control"],
  ["C#C/C(CCC)=N\\Nc1ccc([N+](=O)[O-])cc1[N+](=O)[O-]", "T/C", "94 % of control"],
  ["CCCCN1C(=O)N(c2ccc(OCC)cc2)C2N(CCCC)C1C(C)(C)C2(C)C (centres undefined)", "T/C", "122 % of control"]
]}

Looking up `c1ccc(CCc2ccccc2)cc1` , I found its T/C recorded as 95 % of control

So for `Cc1ccc(C(=O)/C=C/c2cccc3ccccc23)cc1` , the logged T/C turned out to be 97 % of control

Item: `O=C(O)C(F)(F)C(F)(F)C(F)(F)F.O=C(O)C(F)(F)C(F)(F)C(F)(F)F.O=C(O)C(F)(F)C(F)(F)C(F)(F)F.O=C(O)C(F)(F)C(F)(F)C(F)(F)F.[Rh].[Rh]` | T/C: 105 % of control

# T/C (compound: COC1OC(COC(c2ccccc2)(c2ccccc2)c2ccccc2)C(OS(=O)(=O)c2ccc(C)cc2)C(OC(=O)c2ccccc2)C1OC(=O)c1ccccc1 (centres undefined) ) is 114 % of control
